All figures here come from the kinase profiling compilation of Christmann-Franck et al. (2016).

# target-or-test-system: PTK2 (human) (UniProt Q05397)
# Sequence (Q05397 whole entry, looked up): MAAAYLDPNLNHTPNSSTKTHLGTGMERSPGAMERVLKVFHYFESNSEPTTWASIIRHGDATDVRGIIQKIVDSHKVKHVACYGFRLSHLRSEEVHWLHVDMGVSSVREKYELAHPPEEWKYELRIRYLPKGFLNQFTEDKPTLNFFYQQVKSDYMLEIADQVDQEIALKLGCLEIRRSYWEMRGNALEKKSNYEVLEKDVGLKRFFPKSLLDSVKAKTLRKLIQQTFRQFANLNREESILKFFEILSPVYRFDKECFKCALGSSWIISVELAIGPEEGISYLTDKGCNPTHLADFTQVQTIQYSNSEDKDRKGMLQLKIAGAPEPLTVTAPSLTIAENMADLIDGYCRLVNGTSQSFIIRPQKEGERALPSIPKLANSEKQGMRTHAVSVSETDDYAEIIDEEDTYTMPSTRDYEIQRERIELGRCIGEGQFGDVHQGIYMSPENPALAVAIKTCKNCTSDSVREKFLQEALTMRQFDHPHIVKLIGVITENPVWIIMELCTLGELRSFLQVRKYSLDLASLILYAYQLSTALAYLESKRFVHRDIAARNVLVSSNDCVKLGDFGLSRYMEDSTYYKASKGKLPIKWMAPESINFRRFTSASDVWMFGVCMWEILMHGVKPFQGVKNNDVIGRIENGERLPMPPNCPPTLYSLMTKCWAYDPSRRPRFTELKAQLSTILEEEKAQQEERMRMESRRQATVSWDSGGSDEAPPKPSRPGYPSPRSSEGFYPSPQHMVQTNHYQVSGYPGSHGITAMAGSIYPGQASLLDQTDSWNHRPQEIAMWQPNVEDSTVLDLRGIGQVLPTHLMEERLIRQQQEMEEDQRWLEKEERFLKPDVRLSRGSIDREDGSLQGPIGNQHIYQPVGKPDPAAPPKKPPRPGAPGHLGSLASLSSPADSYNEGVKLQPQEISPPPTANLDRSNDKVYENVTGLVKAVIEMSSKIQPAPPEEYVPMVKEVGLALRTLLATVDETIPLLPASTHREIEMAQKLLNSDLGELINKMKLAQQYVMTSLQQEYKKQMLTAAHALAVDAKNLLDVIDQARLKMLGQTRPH
# protocol-notes: KINOMEscan competition binding
# condition-notes: compound 10.0 µM
Classification by kinase still bound, per cent of control follows these ranges: L (below 5%), M (5% to below 20%), H (20% or more)

{"columns": ["molecule", "qualitative-label"],
 "data": [
  ["COc1cc(N2CCN(CCO)CC2)ccc1Nc1ncc2c(n1)N(C1CCCC1)CCC(=O)N2C", "L"],
  ["COc1cc(N2CCN(C)CC2)ccc1Nc1ncc2c(n1)Nc1ccccc1NC2=O", "H"],
  ["COc1cc(N2CCC(C)(O)CC2)ccc1Nc1ncc2c(n1)N(C1CCCC1)CCC(=O)N2C", "M"],
  ["COc1cc(N2CCN(C)CC2)ccc1Nc1ncc2c(n1)N(C(C)C)c1ccccc1C(=O)N2C", "M"],
  ["CN1C(=O)c2ccccc2N(C)c2nc(Nc3ccc(N4CCC(O)CC4)cc3)ncc21", "H"],
  ["COc1cc(C(=O)NC2CCN(C)CC2)ccc1Nc1ncc2c(n1)N(C1CCCC1)C(C)CC(=O)N2C (centres undefined)", "L"],
  ["COc1cc(C(=O)NC2CCN(C)CC2)ccc1Nc1ncc2c(n1)N(C1CCC(O)CC1)CCC(=O)N2C (centres undefined)", "M"],
  ["COc1cc(C(=O)NC2CCN(C)CC2)ccc1Nc1ncc2c(n1)N(C1CCCC1)CCC(=O)N2C", "L"],
  ["COc1cc(N2CCN(C)CC2)ccc1Nc1ncc2c(n1)N(C1CCCC1)C(C)CC(=O)N2C (centres undefined)", "L"],
  ["COc1cc(N(C)CCO)ccc1Nc1ncc2c(n1)N(C1CCCC1)CCC(=O)N2C", "M"],
  ["COc1cc(N2CCN(C)CC2)ccc1Nc1ncc2c(n1)N(C1CCCC1)C(C)CC(=O)N2 (centres undefined)", "L"],
  ["COc1cc(N2CCC(O)CC2)ccc1Nc1ncc2c(n1)N(c1ccccc1)CCC(=O)N2C", "M"],
  ["COc1cc(N2CCC(N3CCN(C)CC3)CC2)ccc1Nc1ncc2c(n1)N(C1CCCC1)C(C)CC(=O)N2C (centres undefined)", "L"],
  ["COc1cc(N2CCC(O)CC2)ccc1Nc1ncc2c(n1)N(C1CCCC1)CCC(=O)N2C", "M"],
  ["COc1cc(N2CCC(O)CC2)ccc1Nc1ncc2c(n1)N1CCc3cccc(c31)C(=O)N2C", "L"],
  ["COc1cc(N2CCC(O)CC2)ccc1Nc1ncc2c(n1)N(C)c1ccccc1C(=O)N2C", "M"],
  ["CN1C(=O)c2ccccc2N(C)c2nc(NS(=O)(=O)c3ccc(N)cc3)ncc21", "H"],
  ["COc1cc(N2CCN(C)CC2)ccc1Nc1ncc2c(n1)N(C)c1ccccc1N(C)C2=O", "H"],
  ["COc1cc(C(=O)NC2CCN(C)CC2)ccc1Nc1ncc2c(n1)N(CCc1ccccc1)CCC(=O)N2C", "H"]
]}

----------
# target-or-test-system: TSSK1B (human) (UniProt Q9BXA7)
# Sequence (Q9BXA7 whole entry, looked up): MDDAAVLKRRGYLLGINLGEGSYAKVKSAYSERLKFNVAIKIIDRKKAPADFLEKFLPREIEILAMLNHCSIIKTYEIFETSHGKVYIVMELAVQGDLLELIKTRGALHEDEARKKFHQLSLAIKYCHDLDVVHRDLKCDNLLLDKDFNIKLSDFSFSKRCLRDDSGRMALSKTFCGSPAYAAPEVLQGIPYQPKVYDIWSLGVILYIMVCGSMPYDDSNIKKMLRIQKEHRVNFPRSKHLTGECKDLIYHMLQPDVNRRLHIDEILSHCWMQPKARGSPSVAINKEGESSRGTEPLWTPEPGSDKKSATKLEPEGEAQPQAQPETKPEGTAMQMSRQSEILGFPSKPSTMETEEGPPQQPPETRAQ
# protocol-notes: KINOMEscan competition binding
# condition-notes: compound 10.0 µM
Hi! Could you tag entries with kinase still bound, per cent of control below 60% as Condition met, and those at or above as Condition not met? Much appreciated.

{"columns": ["smiles-record", "qualitative-label"],
 "data": [
  ["COc1cc(N2CCN(C)CC2)ccc1Nc1ncc2c(n1)N1CCC[C@H]1CC(=O)N2C", "Condition met"],
  ["CN1C(=O)c2ccccc2N(C)c2nc(NS(=O)(=O)c3ccc(N)cc3)ncc21", "Condition not met"],
  ["CN1C(=O)c2ccccc2N(C)c2nc(Nc3ccc(N4CCC(O)CC4)cc3)ncc21", "Condition not met"],
  ["O=C1NC(=O)/C(=C/c2c[nH]c(=O)c(-c3ccc(N4CCNCC4)nc3)c2)S1", "Condition met"],
  ["N=C1NC(=O)/C(=C/c2c[nH]c(=O)c(-c3ccc(N4CCNCC4)nc3)c2)S1", "Condition met"],
  ["CN1CCN(c2ccc(C(=O)Nc3ncc4c(n3)N(C)c3ccccc3C(=O)N4C)cc2)CC1", "Condition not met"],
  ["COc1cc(N2CCN(C)CC2)ccc1Nc1ncc2c(n1)N(C)c1sccc1C(=O)N2C", "Condition met"],
  ["COc1cc(N2CCN(C)CC2)ccc1Nc1ncc2c(n1)N(C)c1ccccc1N(C)C2=O", "Condition met"],
  ["COc1cc(N2CCN(C)CC2)ccc1Nc1ncc2c(n1)Nc1ccccc1NC2=O", "Condition not met"],
  ["COc1cc(N2CCC(O)CC2)ccc1Nc1ncc2c(n1)N1CCc3cccc(c31)C(=O)N2C", "Condition not met"]
]}

----------
# target-or-test-system: UniProt P50613
# Sequence (P50613 whole entry, looked up): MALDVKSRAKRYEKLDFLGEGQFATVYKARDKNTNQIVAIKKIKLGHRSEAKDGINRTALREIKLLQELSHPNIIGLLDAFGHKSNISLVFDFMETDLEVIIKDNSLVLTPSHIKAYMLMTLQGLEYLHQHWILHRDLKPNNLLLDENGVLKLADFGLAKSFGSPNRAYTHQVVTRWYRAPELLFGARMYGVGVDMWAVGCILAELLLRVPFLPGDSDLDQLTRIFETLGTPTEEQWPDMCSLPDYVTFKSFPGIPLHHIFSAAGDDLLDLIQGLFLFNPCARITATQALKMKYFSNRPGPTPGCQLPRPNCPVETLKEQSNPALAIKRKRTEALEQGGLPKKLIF
# protocol-notes: KINOMEscan competition binding
# condition-notes: compound 10.0 µM

{"columns": ["compound", "measurement-units", "kinase still bound, per cent of control"],
 "data": [
  ["CS(=O)(=O)Nc1ccc(-c2ccc(/C=C3\\SC(=N)NC3=O)o2)cc1", "%", 1.3],
  ["CSC1=NC(=O)/C(=C/c2ccc(-c3ccc(S(N)(=O)=O)cc3)o2)S1", "%", 1.4],
  ["CN(C)C1=NC(=O)/C(=C/c2ccc(-c3ccc(S(N)(=O)=O)cc3)o2)S1", "%", 22],
  ["CN1C(=O)[C@H]2CCC[C@H]2N(C2CCCC2)c2nc(Nc3ccc(C(N)=O)cc3)ncc21", "%", 3.7],
  ["CN1C(=O)c2ccccc2N(C)c2nc(Nc3ccc(N4CCC(O)CC4)cc3)ncc21", "%", 60],
  ["CS(=O)(=O)Nc1ccc(-c2cc(/C=C3\\SC(=N)NC3=O)c[nH]c2=O)cc1", "%", 26],
  ["COc1cc(N2CCN(C)CC2)ccc1Nc1ncc2c(n1)N(C)c1ccccc1N(C)C2=O", "%", 100],
  ["N=C1NC(=O)/C(=C/c2ccc(-c3cncc4ccccc34)o2)S1", "%", 14],
  ["N=C1NC(=O)/C(=C/c2ccc(-c3ccc(F)cc3O)o2)S1", "%", 0.95],
  ["COc1cc(N2CCC(O)CC2)ccc1Nc1ncc2c(n1)N1CCc3cccc(c31)C(=O)N2C", "%", 83],
  ["N=C1NC(=O)/C(=C/c2ccc(-c3cnc4ccccc4c3)o2)S1", "%", 5.8],
  ["CN1C(=O)[C@H]2CCC[C@H]2N(C2CCCC2)c2nc(Nc3ccc4ncccc4c3)ncc21", "%", 30],
  ["N=C1NC(=O)/C(=C/c2ccc(-c3ccc(S(N)(=O)=O)cc3)o2)S1", "%", 23],
  ["N=C1NC(=O)/C(=C/c2ccc(-c3ccc(C(N)=O)cc3O)o2)S1", "%", 1],
  ["CSC1=NC(=O)/C(=C/c2c[nH]c(=O)c(-c3ccc(NS(C)(=O)=O)cc3)c2)S1", "%", 30],
  ["N=C1NC(=O)/C(=C/c2ccc(-c3ccc(C(=O)Nc4ccc(N5CCNCC5)cc4)cc3O)o2)S1", "%", 3.2],
  ["CC(=O)Nc1ccc(-c2ccc(/C=C3\\SC(=N)NC3=O)o2)c(O)c1", "%", 3.9],
  ["N=C1NC(=O)/C(=C/c2c[nH]c(=O)c(-c3ccc(N4CCNCC4)nc3)c2)S1", "%", 8.8],
  ["O=C1NC(=O)/C(=C/c2c[nH]c(=O)c(-c3ccc(N4CCNCC4)nc3)c2)S1", "%", 5.6],
  ["CN1CCN(c2ccc(C(=O)Nc3ncc4c(n3)N(C)c3ccccc3C(=O)N4C)cc2)CC1", "%", 74],
  ["N=C1NC(=O)/C(=C/c2ccc(-c3ccc(F)cc3)o2)S1", "%", 15],
  ["CS(=O)C1=NC(=O)/C(=C/c2ccc(-c3ccc(S(N)(=O)=O)cc3)o2)S1 (configuration not stated)", "%", 29]
]}

----------
# target-or-test-system: STK17B (human) (UniProt O94768)
# Sequence (O94768 whole entry, looked up): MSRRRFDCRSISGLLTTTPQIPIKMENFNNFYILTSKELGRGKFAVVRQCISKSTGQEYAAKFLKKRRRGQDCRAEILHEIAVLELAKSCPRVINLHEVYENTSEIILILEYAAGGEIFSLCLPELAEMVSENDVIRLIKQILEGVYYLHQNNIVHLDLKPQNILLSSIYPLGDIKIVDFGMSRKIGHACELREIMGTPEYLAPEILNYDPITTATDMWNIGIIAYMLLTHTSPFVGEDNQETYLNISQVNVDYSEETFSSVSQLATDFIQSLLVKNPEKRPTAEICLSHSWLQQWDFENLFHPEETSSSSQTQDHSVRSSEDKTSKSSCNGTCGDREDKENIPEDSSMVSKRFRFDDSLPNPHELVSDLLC
# protocol-notes: KINOMEscan competition binding
# condition-notes: compound 10.0 µM
The following compounds are shown together with reported kinase still bound, per cent of control values.

{"columns": ["compound", "target-or-test-system", "measurement-units", "kinase still bound, per cent of control"],
 "data": [
  ["CS(=O)C1=NC(=O)/C(=C/c2ccc(-c3ccc(S(N)(=O)=O)cc3)o2)S1 (stereo not given)", "STK17B (human) (UniProt O94768)", "%", 5.2],
  ["O=C1NC(=S)S/C1=C\\c1ccc(-c2cccc3ccccc23)o1", "STK17B (human) (UniProt O94768)", "%", 3.6],
  ["Nc1cccc(-c2cc(/C=C3\\SC(=O)NC3=O)c[nH]c2=O)c1", "STK17B (human) (UniProt O94768)", "%", 1],
  ["N=C1NC(=O)/C(=C/c2ccc(-c3ccccc3O)o2)S1", "STK17B (human) (UniProt O94768)", "%", 2],
  ["O=C1NC(=O)/C(=C/c2c[nH]c(=O)c(-c3ccc(C(=O)Nc4ccc(N5CCNCC5)cc4)cc3)c2)S1", "STK17B (human) (UniProt O94768)", "%", 0.6]
]}
